Here we list molecules with their recorded IC50 when tested on UniProtKB Q8WS26.
Sequence (Q8WS26 1-425): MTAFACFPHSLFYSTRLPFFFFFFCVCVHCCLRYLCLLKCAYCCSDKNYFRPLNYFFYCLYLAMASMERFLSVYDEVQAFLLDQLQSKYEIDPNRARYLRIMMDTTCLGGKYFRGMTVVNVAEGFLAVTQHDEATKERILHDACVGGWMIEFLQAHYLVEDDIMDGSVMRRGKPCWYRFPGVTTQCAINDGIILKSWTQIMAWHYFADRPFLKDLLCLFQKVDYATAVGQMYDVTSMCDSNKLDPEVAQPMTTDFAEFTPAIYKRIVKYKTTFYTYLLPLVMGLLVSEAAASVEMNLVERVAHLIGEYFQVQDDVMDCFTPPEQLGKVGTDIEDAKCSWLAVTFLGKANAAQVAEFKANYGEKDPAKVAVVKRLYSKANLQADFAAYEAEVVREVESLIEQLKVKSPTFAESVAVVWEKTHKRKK

molecule	IC50
CCCCCCCCCCNCC(O)(P(=O)(O)O)P(=O)(O)O [Compound 31]	> 10 µM
CCCCCNCC(O)(P(=O)(O)O)P(=O)(O)O [Compound 27]	> 10 µM
CCCCCCNCC(O)(P(=O)(O)O)P(=O)(O)O [Compound 28]	> 10 µM
